tested on: Escherichia coli; assay: Antimicrobial activity against Escherichia coli K-12 ER2718 assessed as effect on planktonic growth at PC75 after 2 to 24 hrs; type: organism-based; conditions: in vivo
readoutLabel: Activity

Examples from the recorded data:
CCCCCCc1ccc(C(=O)NCCn2cc(Cc3c[nH]c4ccccc34)nn2)cc1
Non-toxic
CCCCCCCc1ccc(C(=O)NCCn2cc(Cc3csc4ccccc34)nn2)cc1
Non-toxic
O=C(NCCn1cc(Cc2c(Br)[nH]c3ccccc23)nn1)c1ccccc1F
Non-toxic
CCCCCCCc1ccc(C(=O)NCCn2cc(Cc3c(Br)[nH]c4ccccc34)nn2)cc1
Non-toxic
O=C(Cn1cc(Cc2csc3ccccc23)nn1)Nc1ccccc1
Non-toxic

Item under review: O=C(Cn1cc(Cc2c[nH]c3ccccc23)nn1)Nc1ccccc1 . Reported Activity?
Non-toxic

Item under review: CCCCCCCc1ccc(C(=O)NCCn2cc(Cc3c[nH]c4ccccc34)nn2)cc1 . Reported Activity?
Non-toxic

Item under review: CCCCCCc1ccc(C(=O)NCCn2cc(Cc3c(Br)[nH]c4ccccc34)nn2)cc1 . Reported Activity?
Non-toxic

Item under review: CCCCCc1ccc(C(=O)NCCn2cc(Cc3c[nH]c4ccccc34)nn2)cc1 . Reported Activity?
Non-toxic

Item under review: CCCCCCNC(=O)Cn1cc(Cc2c[nH]c3ccccc23)nn1 . Reported Activity?
Non-toxic

Item under review: CCCCCc1ccc(C(=O)NCCn2cc(Cc3csc4ccccc34)nn2)cc1 . Reported Activity?
Non-toxic

====

tested on: Escherichia coli; assay: Induction of biofilm formation in Escherichia coli K-12 ER2718 assessed as concentration required for 75% promotion of biofilm formation after 24 hrs by crystal violet staining-based assay; format: functional
Note to self: values exactly at 100 µM are 1 (yes). So Activity at or above 100 µM is 1 (yes), below is 0 (no).

Could you please find out whether CCCCCc1ccc(C(=O)NCCn2cc(Cc3c[nH]c4ccccc34)nn2)cc1 has Activity that meets 100 µM or exceeds it?
1 (yes)

Could you please find out whether CCCCCCc1ccc(C(=O)NCCn2cc(Cc3c[nH]c4ccccc34)nn2)cc1 has Activity that meets 100 µM or exceeds it?
1 (yes)

Could you please find out whether CCCCCc1ccc(C(=O)NCCn2cc(Cc3csc4ccccc34)nn2)cc1 has Activity that meets 100 µM or exceeds it?
1 (yes)

Could you please find out whether CCCCCCCc1ccc(C(=O)NCCn2cc(Cc3c[nH]c4ccccc34)nn2)cc1 has Activity that meets 100 µM or exceeds it?
1 (yes)

Could you please find out whether CCCCCCCc1ccc(C(=O)NCCn2cc(Cc3csc4ccccc34)nn2)cc1 has Activity that meets 100 µM or exceeds it?
0 (no)

====

system: Escherichia coli; test: Induction of biofilm formation in Escherichia coli K-12 ER2718 at 50 uM after 24 hrs by crystal violet staining-based assay relative to control; format: functional
readoutLabel: Activity

Item under review: O=C(Cn1cc(Cc2c[nH]c3ccccc23)nn1)Nc1ccccc1 . Reported Activity?
<50%

Item under review: CCCCCCc1ccc(C(=O)NCCn2cc(Cc3c[nH]c4ccccc34)nn2)cc1 . Reported Activity?
>50%

Item under review: CCCCCCCc1ccc(C(=O)NCCn2cc(Cc3c(Br)[nH]c4ccccc34)nn2)cc1 . Reported Activity?
<50%

Item under review: CCCCCCNC(=O)Cn1cc(Cc2c[nH]c3ccccc23)nn1 . Reported Activity?
<50%

Item under review: CCCCCCCc1ccc(C(=O)NCCn2cc(Cc3csc4ccccc34)nn2)cc1 . Reported Activity?
>50%

Item under review: CCCCCc1ccc(C(=O)NCCn2cc(Cc3csc4ccccc34)nn2)cc1 . Reported Activity?
>50%

====

test system: Staphylococcus aureus; test: Antimicrobial activity against Staphylococcus aureus 29213 assessed as effect on planktonic growth at PC75 after 2 to 24 hrs by colony count method; type: organism-based; conditions: in vivo
readoutLabel: Activity

O=C(NCCn1cc(Cc2c(Br)[nH]c3ccccc23)nn1)c1ccccc1F
Non-toxic
O=C(NCCn1cc(Cc2c[nH]c3ccccc23)nn1)c1ccccc1F
Non-toxic
O=C(Cn1cc(Cc2c(Br)[nH]c3ccccc23)nn1)Nc1ccccc1
Non-toxic
O=C(NCCn1cc(Cc2csc3ccccc23)nn1)c1ccccc1F
Non-toxic

Item under review: CCCCCCCc1ccc(C(=O)NCCn2cc(Cc3c(Br)[nH]c4ccccc34)nn2)cc1 . Reported Activity?
Non-toxic

====

system: Acinetobacter baumannii; assay: Inhibition of biofilm formation in Acinetobacter baumannii 19606 after 24 hrs by crystal violet staining-based assay; type: functional; settings: ATCC 19606 = CIP 70.34 = JCM 6841, 24 h
readoutLabel: IC50 (µM)
Give a bare numeral; the unit µM is implied.

Item under review: O=C(Cn1cc(Cc2c(Br)[nH]c3ccccc23)nn1)Nc1ccccc1 . Reported IC50?
326

====

system: Staphylococcus aureus; experiment: Inhibition of biofilm formation in methicillin-resistant Staphylococcus aureus BAA 44 at 150 uM after 24 hrs by crystal violet staining-based assay relative to control; format: functional; details: BAA 44, 24 h
readoutLabel: inhibition at 150 µM

Item under review: CCCCCCNC(=O)Cn1cc(Cc2c[nH]c3ccccc23)nn1 . Reported inhibition at 150 µM?
< 5%

Item under review: CCCCCc1ccc(C(=O)NCCn2cc(Cc3csc4ccccc34)nn2)cc1 . Reported inhibition at 150 µM?
< 5%

Item under review: CCCCCc1ccc(C(=O)NCCn2cc(Cc3c[nH]c4ccccc34)nn2)cc1 . Reported inhibition at 150 µM?
< 5%

Item under review: O=C(NCCn1cc(Cc2c[nH]c3ccccc23)nn1)c1ccccc1F . Reported inhibition at 150 µM?
35%

Item under review: O=C(Cn1cc(Cc2c[nH]c3ccccc23)nn1)Nc1ccccc1 . Reported inhibition at 150 µM?
< 5%

Item under review: CCCCCCc1ccc(C(=O)NCCn2cc(Cc3c(Br)[nH]c4ccccc34)nn2)cc1 . Reported inhibition at 150 µM?
25%

====

test system: Staphylococcus aureus; assay: Inhibition of biofilm formation in methicillin-resistant Staphylococcus aureus BAA 44 at 150 uM after 24 hrs by crystal violet staining-based assay relative to control; assay type: functional; conditions: BAA 44, 24 h
readoutLabel: inhibition at 150 µM

Item under review: O=C(NCCn1cc(Cc2c[nH]c3ccccc23)nn1)c1ccccc1 . Reported inhibition at 150 µM?
< 5%

Item under review: CCCCCCNC(=O)Cn1cc(Cc2csc3ccccc23)nn1 . Reported inhibition at 150 µM?
< 5%

Item under review: O=C(NCCn1cc(Cc2csc3ccccc23)nn1)c1ccccc1 . Reported inhibition at 150 µM?
< 5%

Item under review: CCCCCCc1ccc(C(=O)NCCn2cc(Cc3csc4ccccc34)nn2)cc1 . Reported inhibition at 150 µM?
< 5%

Item under review: O=C(NCCn1cc(Cc2csc3ccccc23)nn1)c1ccccc1F . Reported inhibition at 150 µM?
< 5%

Item under review: O=C(NCCn1cc(Cc2c(Br)[nH]c3ccccc23)nn1)c1ccccc1F . Reported inhibition at 150 µM?
20%

Item under review: COc1ccc(CNC(=O)Cn2cc(Cc3csc4ccccc34)nn2)cc1 . Reported inhibition at 150 µM?
< 5%

Item under review: O=C(Cn1cc(Cc2csc3ccccc23)nn1)Nc1ccccc1 . Reported inhibition at 150 µM?
20%

Item under review: CCCCCCCc1ccc(C(=O)NCCn2cc(Cc3c[nH]c4ccccc34)nn2)cc1 . Reported inhibition at 150 µM?
< 5%

Item under review: CCCCCCCc1ccc(C(=O)NCCn2cc(Cc3csc4ccccc34)nn2)cc1 . Reported inhibition at 150 µM?
< 5%

Item under review: COc1ccc(CNC(=O)Cn2cc(Cc3c[nH]c4ccccc34)nn2)cc1 . Reported inhibition at 150 µM?
< 5%

====

Answer each item with its documented Activity.
tested on: Staphylococcus aureus; test: Induction of biofilm formation in Staphylococcus aureus 29213 at 50 uM after 24 hrs by crystal violet staining-based assay relative to control; format: functional

Item under review: CCCCCCCc1ccc(C(=O)NCCn2cc(Cc3c(Br)[nH]c4ccccc34)nn2)cc1 . Reported Activity?
<50%

Item under review: O=C(NCCn1cc(Cc2c[nH]c3ccccc23)nn1)c1ccccc1F . Reported Activity?
<50%

Item under review: O=C(Cn1cc(Cc2c(Br)[nH]c3ccccc23)nn1)Nc1ccccc1 . Reported Activity?
>50%

Item under review: O=C(NCCn1cc(Cc2csc3ccccc23)nn1)c1ccccc1F . Reported Activity?
>50%

Item under review: O=C(NCCn1cc(Cc2c(Br)[nH]c3ccccc23)nn1)c1ccccc1F . Reported Activity?
<50%

====

tested on: Acinetobacter baumannii; assay: Antimicrobial activity against Acinetobacter baumannii 19606 assessed as effect on planktonic growth at 50 uM after 2 to 24 hrs; design: species or system ATCC 19606
readoutLabel: Activity

O=C(NCCn1cc(Cc2c(Br)[nH]c3ccccc23)nn1)c1ccccc1F
Non-toxic
CCCCCCCc1ccc(C(=O)NCCn2cc(Cc3c(Br)[nH]c4ccccc34)nn2)cc1
Non-toxic
O=C(Cn1cc(Cc2csc3ccccc23)nn1)Nc1ccccc1
Non-toxic
CCCCCCCc1ccc(C(=O)NCCn2cc(Cc3csc4ccccc34)nn2)cc1
Non-toxic
